biological target: BRM (Homo sapiens, UniProt P51531); construct: made in house; host or cells: High Five insect cells; assay: ATPase catalytic activity of BRM, ADP-Glo in vitro biochemical assay; conditions: ratio of BRG1 IC50 to BRM IC50
Sequence (P51531 whole entry): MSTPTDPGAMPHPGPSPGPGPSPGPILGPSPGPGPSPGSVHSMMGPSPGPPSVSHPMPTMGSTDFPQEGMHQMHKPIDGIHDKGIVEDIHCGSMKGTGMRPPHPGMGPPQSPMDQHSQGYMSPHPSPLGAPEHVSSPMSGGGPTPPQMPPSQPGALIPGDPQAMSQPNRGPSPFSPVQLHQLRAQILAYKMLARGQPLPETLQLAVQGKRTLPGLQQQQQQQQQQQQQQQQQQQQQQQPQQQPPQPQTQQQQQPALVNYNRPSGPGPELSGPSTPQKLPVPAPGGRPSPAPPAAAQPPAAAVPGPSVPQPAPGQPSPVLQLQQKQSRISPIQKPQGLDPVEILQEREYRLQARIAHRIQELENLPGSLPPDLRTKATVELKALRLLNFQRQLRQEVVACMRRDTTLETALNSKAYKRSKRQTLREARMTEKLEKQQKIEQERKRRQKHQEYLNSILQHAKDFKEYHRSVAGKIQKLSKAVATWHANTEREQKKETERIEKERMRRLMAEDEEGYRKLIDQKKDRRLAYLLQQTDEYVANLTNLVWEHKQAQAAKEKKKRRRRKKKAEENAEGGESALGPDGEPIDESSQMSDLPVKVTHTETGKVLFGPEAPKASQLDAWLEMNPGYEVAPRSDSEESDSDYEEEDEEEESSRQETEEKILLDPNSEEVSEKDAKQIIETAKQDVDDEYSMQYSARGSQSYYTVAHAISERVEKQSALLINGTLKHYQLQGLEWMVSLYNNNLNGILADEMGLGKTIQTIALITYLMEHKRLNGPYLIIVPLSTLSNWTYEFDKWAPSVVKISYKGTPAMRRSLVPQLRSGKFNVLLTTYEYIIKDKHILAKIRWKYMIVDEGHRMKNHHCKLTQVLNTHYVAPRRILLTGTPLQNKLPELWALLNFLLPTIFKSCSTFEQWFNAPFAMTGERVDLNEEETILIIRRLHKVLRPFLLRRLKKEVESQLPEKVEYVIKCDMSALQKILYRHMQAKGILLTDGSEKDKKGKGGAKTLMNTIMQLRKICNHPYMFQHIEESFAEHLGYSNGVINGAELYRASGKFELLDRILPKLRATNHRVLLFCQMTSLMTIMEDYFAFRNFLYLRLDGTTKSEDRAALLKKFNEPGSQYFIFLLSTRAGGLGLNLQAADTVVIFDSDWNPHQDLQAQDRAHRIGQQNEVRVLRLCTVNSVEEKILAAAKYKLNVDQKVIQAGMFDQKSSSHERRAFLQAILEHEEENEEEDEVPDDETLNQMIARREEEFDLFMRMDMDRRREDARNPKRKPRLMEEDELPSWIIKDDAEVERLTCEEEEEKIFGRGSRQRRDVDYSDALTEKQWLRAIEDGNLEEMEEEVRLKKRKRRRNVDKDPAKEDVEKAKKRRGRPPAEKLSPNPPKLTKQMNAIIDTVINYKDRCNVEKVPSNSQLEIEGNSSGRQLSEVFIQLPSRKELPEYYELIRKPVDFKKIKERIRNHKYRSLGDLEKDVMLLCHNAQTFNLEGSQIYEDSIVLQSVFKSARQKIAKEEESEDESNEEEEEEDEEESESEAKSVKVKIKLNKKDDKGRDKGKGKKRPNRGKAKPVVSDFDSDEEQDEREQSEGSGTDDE
parameter: Ratio*

Consider the following illustrative entries.
* C[C@@H]1CN(c2cccc(-c3ccc4cnc(CNC(=O)c5cc(Cl)c6c(c5)S(=O)(=O)CCO[C@H]6C)cc4n3)n2)C[C@H](C)O1 | 17.08
* Cc1ccc2c(n1)N(c1ccc3cnc(CNC(=O)c4ccc5c(c4)S(=O)(=O)CCOC5)cc3n1)CCC2 | 18.47
* COc1cc(CC(F)F)ccc1-c1ccc2cnc(CNC(=O)c3ccc4c(c3)S(=O)(=O)CCOC4)cc2n1 | 10.49

Let us move to another entry and its Ratio*.
Exam item: Please report the measured Ratio* for COc1cnc2c(c1)CCCN2c1ccc2cnc(CNC(=O)c3ccc4c(c3)S(=O)(=O)CCOC4)cc2n1 tested on BRM (Homo sapiens, UniProt P51531).
Marked response: 12.06

###

molecular target: BRM (Homo sapiens); construct: made in house; host or cells: High Five insect cells; test: ATPase catalytic activity of BRM, ADP-Glo in vitro biochemical assay; conditions: ADP-Glo ATPase assay, 30 nM BRM, 400 μM ATP
Task for the reader: assign each of the following compounds its reported pIC50.
One number for each entry, as −log10 of the molar value.

Consider the following illustrative entries.
- CN(C)[C@H]1CCN(c2cccc(-c3ccc4cnc(CNC(=O)c5ccc6c(c5)S(=O)(=O)CCOC6)cc4n3)n2)CC1(F)F: 6.56
- CN(C)c1cc2c(cn1)N(c1ccc3cnc(CNC(=O)c4ccc5c(c4)S(=O)(=O)CCOC5)cc3n1)CCO2: 8.09
- CCS(=O)(=O)c1cc(C(=O)NCc2cc3nc(-c4cncc(C5CC5)n4)ccc3cn2)ccc1C: 7.07

Go through the list and state pIC50 for each entry.
1. O=C(NCc1cc2nc(-c3ccc(F)c(OC(F)F)n3)ccc2cn1)c1ccc2c(c1)S(=O)(=O)CCOC2
2. COCc1cc2c(cn1)N(c1ccc3cnc(CNC(=O)c4ccc5c(c4)S(=O)(=O)CCOC5)cc3n1)CCC2
3. C[C@@H]1CN(c2cccc(-c3ccc4cnc(CNC(=O)c5cc(F)c6c(c5)S(=O)(=O)CCCO6)cc4n3)n2)C[C@H](C)O1
4. C[C@@H]1CN(c2cccc(-c3ccc4cnc(CNC(=O)c5ccc6c(c5)S(=O)(=O)CCCO6)cc4n3)n2)C[C@H](C)O1
5. O=C(NCc1cc2nc(N3CCc4cc(F)cnc43)ccc2cn1)c1ccc2c(c1)S(=O)(=O)CCOC2
6. COCc1c(Cl)cc(C(=O)NCc2cc3nc(-c4cccc(N5C[C@@H](C)O[C@@H](C)C5)n4)ccc3cn2)cc1S(C)(=O)=O
7. C[C@@H]1CN(c2cccc(-c3ccc4cnc([C@@H](C)NC(=O)c5ccc6c(c5)S(=O)(=O)CCOC6)cc4n3)n2)C[C@H](C)O1
8. O=C(NCc1cc2nc(N3CCC(F)(F)c4cccnc43)ccc2cn1)c1ccc2c(c1)S(=O)(=O)CCOC2

Marked response:
7.65
7.10
8.07
7.93
6.99
7.15
7.06
7.76

###

target: BRM (Homo sapiens); construct: made in house; host or cells: High Five insect cells; assay: ATPase catalytic activity of BRM, ADP-Glo in vitro biochemical assay; settings: ATPase catalytic activity, ADP-Glo; 30 nM BRM, 400 μM ATP
Decision: IC50 beneath 30 nM gives 1.0; IC50 meeting or exceeding 30 nM gives 0.0.

Example cases with answers are listed next.
* CO[C@@H]1COc2c(-c3ccc4cnc(CNC(=O)c5ccc6c(c5)S(=O)(=O)CCOC6)cc4n3)cccc2N(C)C1 | 0.0
* COCCN1c2cccc(-c3ccc4cnc(CNC(=O)c5ccc6c(c5)S(=O)(=O)CCOC6)cc4n3)c2OCC1C (stereo not drawn) | 1.0
* O=C(NCc1cc2nc(N3CCCc4ccc(OC5CC5)cc43)ccc2cn1)c1ccc2c(c1)S(=O)(=O)CCOC2 | 1.0
* O=C(NCc1cc2nc(N3C(=O)Cc4ccccc43)ccc2cn1)c1ccc2c(c1)S(=O)(=O)CCOC2 | 0.0
* O=C(NCc1cc2nc(N3CCOc4ccc(C5CC5)nc43)ccc2cn1)c1ccc2c(c1)S(=O)(=O)CCOC2 | 1.0

Exam item: IC50 strictly < 30 nM for this compound? CN1CC[C@@H](Oc2cccc(-c3ccc4cnc(CNC(=O)c5ccc6c(c5)S(=O)(=O)CCOC6)cc4n3)n2)C1
Marked response: 0.0

Exam item: IC50 strictly < 30 nM for this compound? COCc1cc2c(nc1Cl)N(c1ccc3cnc(CNC(=O)c4ccc5c(c4)S(=O)(=O)CCOC5)cc3n1)CCC2
Marked response: 1.0

Exam item: IC50 strictly < 30 nM for this compound? C[C@@H]1CN(c2cccc(-c3ccc4cnc(CNC(=O)c5cnc6c(c5)S(=O)(=O)CCCCC6)cc4n3)n2)C[C@H](C)O1
Marked response: 1.0

Exam item: IC50 strictly < 30 nM for this compound? CC[C@H]1COCc2ccc(C(=O)NCc3cc4nc(-c5cccc(N6C[C@@H](C)O[C@@H](C)C6)n5)ccc4cn3)cc2S1(=O)=O
Marked response: 0.0

Exam item: IC50 strictly < 30 nM for this compound? C[C@@H]1CN(c2cccc(-c3ccc4cnc(CNC(=O)c5ccc6c(c5)S(=O)(=O)CCCN6C)cc4n3)n2)C[C@H](C)O1
Marked response: 1.0
